Tested on: iron/ascorbate induced lipid peroxidation
Assay: Lipid peroxidation (LPO) model, heat-treated hepatic microsomes, TBA reactive substances
Assay type: biochemical
Conditions: rat hepatic microsomes, reaction started with 10 uM FeSO4; mean ± s.e.m., n = 3-5
pIC50: −log10 of the molar value.
value_type: pIC50

# count of solved cases: 4
| compound | pIC50 |
| --- | --- |
| O=c1c(O)c(-c2ccc(O)c(O)c2)oc2cc(O)cc(O)c12 [Quercetin, reference compound] | 5.05 |
| O=c1cc(-c2ccc(O)c(O)c2)oc2cc(O)cc(O)c12 [Lutcolin, reference compound] | 4.77 |
| C[N+](C)(C)CCCOc1ccc2c(=O)cc(-c3ccc(O)c(O)c3)oc2c1 | 4.43 |
| CN(C)CCCOc1c(-c2ccc(O)c(O)c2)oc2ccccc2c1=O | 6.00 |

(P) C[N+](C)(C)CCCCCCOc1c(-c2ccc(O)c(O)c2)oc2ccccc2c1=O
(Q) O=c1c(O)c(-c2cc(O)c(O)c(O)c2)oc2cc(O)cc(O)c12 [Myricetin, reference compound]
(R) O=c1c(O[C@@H]2O[C@H](CO)[C@@H](O)[C@H](O)[C@H]2O)c(-c2ccc(O)c(O)c2)oc2ccccc12 [Compound 9i, 3′,4′-dihydroxy-3-glucoseflavone]
Please rank these compounds by pIC50 in descending order. Form field (ranking): labels in requested order.
P, R, Q
